System: Recombinant human KIF18A (1-467 His-tagged) protein (Homo sapiens, UniProt Q8NI77)
Construct: Recombinant human KIF18A (1-467 His-tagged) protein; His
Sequence (Q8NI77 1-467): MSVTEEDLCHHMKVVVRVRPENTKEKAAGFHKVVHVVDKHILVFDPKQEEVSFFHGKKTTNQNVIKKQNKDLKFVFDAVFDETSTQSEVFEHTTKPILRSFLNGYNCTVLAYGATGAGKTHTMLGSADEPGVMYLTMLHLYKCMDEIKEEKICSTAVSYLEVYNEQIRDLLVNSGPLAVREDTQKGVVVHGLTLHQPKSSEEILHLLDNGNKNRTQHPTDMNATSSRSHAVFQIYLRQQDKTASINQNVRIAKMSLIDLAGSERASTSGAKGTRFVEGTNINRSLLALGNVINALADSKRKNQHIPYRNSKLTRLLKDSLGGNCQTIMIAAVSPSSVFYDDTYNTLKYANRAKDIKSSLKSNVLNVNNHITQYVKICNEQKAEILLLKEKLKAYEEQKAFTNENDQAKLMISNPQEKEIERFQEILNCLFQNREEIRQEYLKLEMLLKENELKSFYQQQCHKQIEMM
Sequence (P02550 whole entry partner): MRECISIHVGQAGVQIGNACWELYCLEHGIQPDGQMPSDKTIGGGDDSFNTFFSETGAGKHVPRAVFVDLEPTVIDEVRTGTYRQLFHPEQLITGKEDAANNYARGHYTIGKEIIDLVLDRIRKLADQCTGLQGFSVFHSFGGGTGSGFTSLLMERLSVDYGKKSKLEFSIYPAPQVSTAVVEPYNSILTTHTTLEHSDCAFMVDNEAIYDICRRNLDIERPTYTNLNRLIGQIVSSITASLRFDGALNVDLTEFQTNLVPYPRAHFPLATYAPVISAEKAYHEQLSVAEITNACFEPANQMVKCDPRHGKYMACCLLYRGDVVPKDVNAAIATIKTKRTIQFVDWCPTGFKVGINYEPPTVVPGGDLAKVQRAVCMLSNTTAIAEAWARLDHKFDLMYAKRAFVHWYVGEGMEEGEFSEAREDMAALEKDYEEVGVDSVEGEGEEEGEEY
Sequence (P02554 whole entry partner): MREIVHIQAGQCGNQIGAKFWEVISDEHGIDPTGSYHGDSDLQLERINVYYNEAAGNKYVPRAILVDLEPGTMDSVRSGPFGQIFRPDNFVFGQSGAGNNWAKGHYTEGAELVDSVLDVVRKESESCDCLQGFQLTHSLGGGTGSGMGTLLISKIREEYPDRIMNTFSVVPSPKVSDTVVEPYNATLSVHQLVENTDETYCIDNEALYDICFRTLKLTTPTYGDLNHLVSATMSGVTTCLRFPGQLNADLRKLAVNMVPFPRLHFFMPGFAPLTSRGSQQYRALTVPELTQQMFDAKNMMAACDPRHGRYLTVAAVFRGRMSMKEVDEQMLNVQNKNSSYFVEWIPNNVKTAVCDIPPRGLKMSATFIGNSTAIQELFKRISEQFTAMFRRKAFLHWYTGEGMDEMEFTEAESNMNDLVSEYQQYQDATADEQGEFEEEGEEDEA
Assay Explanation: KIF18A Enzyme Assay: microtubule-stimulated ATPase activity (ADP-Glo)
Measurement Setup: 30 nM KIF18A, 75 μM ATP
Parameter: log10(IC50). Scope: all listed entries.
Metric: log10(IC50) (log10 of the value in nM)

| Test Smiles | log10(IC50) |
| --- | --- |
| Cc1ccc(NC(=O)c2ccc(NC(C)(CO)CO)nc2N2CCC3(CC2)CC3)cc1S(=O)(=O)C1CCCC1 | 1.60 |
| CC(C)(C)NS(=O)(=O)c1cccc(NC(=O)c2ccc(CS(C)(=O)=O)nc2N2CCC3(CC2)CC3)c1 | 2.01 |
| CC(C)(C)NS(=O)(=O)c1cccc(NC(=O)c2ccc(NCCCO)nc2N2CCC3(CC2)CC3)c1 | 1.91 |
| O=C(Nc1cccc(S(=O)(=O)C2CCCC2)c1)c1ccc(NCCO)nc1N1CCC2(CCC2)CC1 | 1.56 |
| CC(C)(C)NS(=O)(=O)c1cccc(NC(=O)c2ccc(N[C@@H]3CC[C@H](O)C3)nc2N2CCC3(CC2)CC3)c1 | 2.06 |
| Cc1ccc(NC(=O)c2ccncc2N2CCC3(CC2)CC3)cc1C(=O)N1CCC(F)(F)CC1 | 3.19 |

----------
System: Recombinant human KIF18A (1-467 His-tagged) protein (Homo sapiens)
Construct: Recombinant human KIF18A (1-467 His-tagged) protein; His
Assay Explanation: KIF18A Enzyme Assay: microtubule-stimulated ATPase activity (ADP-Glo)
Measurement Setup: 30 nM KIF18A, 75 μM ATP
pIC50: −log10 of the molar value.
The entries below are paired with their reported pIC50.
Metric: pIC50

| Compound | Metric | Observed |
| --- | --- | --- |
| CCC1CCN(c2ncccc2C(=O)Nc2cccc(S(=O)(=O)N3CCCCC3)c2)CC1 [Example 100-2] | pIC50 | 6.01 |
| CC(C)(C)NS(=O)(=O)c1cccc(NC(=O)c2ccc(NS(C)(=O)=O)nc2N2CCC3(CC2)CC3)c1 [Example 110] | pIC50 | 7.04 |
| C[C@H](CO)Nc1ccc(C(=O)Nc2cccc(S(=O)(=O)C3CCCC3)c2)c(N2CCC3(CC2)CC3)n1 [Example 103-10] | pIC50 | 7.38 |
| CCC1(C)CCN(c2ncccc2C(=O)Nc2cccc(S(=O)(=O)C3CCCC3)c2)CC1 [Example 100-16] | pIC50 | 6.00 |
| Cc1ccc(NC(=O)c2ccncc2N2CCC3(CC2)CC3)cc1C(=O)N1CCCC(F)(F)C1 [Example 115] | pIC50 | 6.22 |
| O=C(Nc1cccc(S(=O)(=O)C2CCCC2)c1)c1cccnc1N1CCC2(CC1)CC2 [Example 100-14] | pIC50 | 6.54 |
| Cc1ccc(NC(=O)c2ccc(NC(C)(C)CO)nc2N2CCC3(CC2)CC3)cc1-c1ccoc1 [Example 111-1] | pIC50 | 6.58 |
| CC(C)(C)NS(=O)(=O)c1cccc(NC(=O)c2ccc(N3C[C@H]4C[C@H]4C3)nc2N2CCC3(CC2)CC3)c1 [Example 102-5] | pIC50 | 6.72 |
| CN(C)CCNc1ccc(C(=O)Nc2cccc(S(=O)(=O)C3CCCC3)c2)c(N2CCC3(CC2)CC3)n1 [Example 103-22] | pIC50 | 6.17 |
| O=C(Nc1cccc(S(=O)(=O)C2CCCC2)c1)c1ccc(NC(CO)CO)nc1N1CCC2(CC1)CC2 [Example 106] | pIC50 | 7.27 |
| CC1(C)CCN(c2ncccc2C(=O)Nc2cccc(S(=O)(=O)N3CCCCC3)c2)CC1 [Example 100] | pIC50 | 6.26 |
| Cc1ccc(NC(=O)c2cccnc2N2CCC(C)(C)CC2)cc1S(=O)(=O)N1CCCCC1 [Example 100-9] | pIC50 | 6.55 |
| COC1CN(c2ccc(C(=O)Nc3cccc(S(=O)(=O)NC(C)(C)C)c3)c(N3CCC4(CC3)CC4)n2)C1 [Example 102-12] | pIC50 | 6.23 |
| C[C@@H]1CN(c2cc(NC(=O)c3ccc(NC(C)(C)CO)nc3N3CCC4(CC3)CC4)ccc2F)CCO1 [Example 105-31] | pIC50 | 6.70 |
| CC(C)(C)NS(=O)(=O)c1cccc(NC(=O)c2ccc(N[C@@H]3CCC[C@H]3O)nc2N2CCC3(CC2)CC3)c1 [Example 102-18] | pIC50 | 6.97 |
| O=C(Nc1cccc(S(=O)(=O)C2CCCC2)c1)c1ccc(NCC2(O)CC2)nc1N1CCC2(CC1)CC2 [Example 103-8] | pIC50 | 7.38 |
| O=C(Nc1cccc(S(=O)(=O)C2CCCC2)c1)c1ccc(N2CC(CO)C2)nc1N1CCC2(CC1)CC2 [Example 103-20] | pIC50 | 6.85 |

----------
System: Recombinant human KIF18A (1-467 His-tagged) protein (Homo sapiens, UniProt Q8NI77)
Construct: Recombinant human KIF18A (1-467 His-tagged) protein; His
Assay Explanation: KIF18A Enzyme Assay: microtubule-stimulated ATPase activity (ADP-Glo)
Measurement Setup: 30 nM KIF18A, 75 μM ATP
pIC50: −log10 of the molar value.
pIC50 below 7 gives f; pIC50 at or above it gives t.

| Molecule | Group Label |
| --- | --- |
| CC(C)(C)NS(=O)(=O)c1cccc(NC(=O)c2cccnc2N2CCC3(CC2)CC3)c1 [Example 100-12] | f |
| O=C(Nc1ccc(Cl)c(C(=O)N2CCCC(F)(F)C2)c1)c1ccncc1N1CCC2(CC1)CC2 [Example 115-2] | f |
| O=C(Nc1cccc(S(=O)(=O)NC2CC2)c1)c1cccnc1N1CCC2(CC1)CC2 [Example 101] | f |
| CC(C)(O)CNc1ccc(C(=O)Nc2cccc(S(=O)(=O)C3CCCC3)c2)c(N2CCC3(CC2)CC3)n1 [Example 103] | t |
| CCC1CCN(c2ncccc2C(=O)Nc2cccc(S(=O)(=O)C3CCCC3)c2)CC1 [Example 100-15] | f |
| O=C(Nc1cccc(S(=O)(=O)C2CCCC2)c1)c1ccc(NC2(CO)CC2)nc1N1CCC2(CC1)CC2 [Example 103-4] | t |

----------
System: Recombinant human KIF18A (1-467 His-tagged) protein (Homo sapiens)
Construct: Recombinant human KIF18A (1-467 His-tagged) protein; His
Assay Explanation: KIF18A Enzyme Assay: microtubule-stimulated ATPase activity (ADP-Glo)
Measurement Setup: 30 nM KIF18A, 75 μM ATP
pIC50: −log10 of the molar value.
Reported pIC50 values are given for each entry in this list.

| Test Smiles | pIC50 |
| --- | --- |
| C[C@H](O)CNc1ccc(C(=O)Nc2cccc(S(=O)(=O)C3CCCC3)c2)c(N2CCC3(CC2)CC3)n1 | 7.19 |
| CC(C)(C)Nc1ccc(C(=O)Nc2cccc(S(=O)(=O)C3CCCC3)c2)c(N2CCC3(CC2)CC3)n1 | 7.05 |
| CC(C)(C)NS(=O)(=O)c1cc(NC(=O)c2ccc(NC(C)(C)CO)nc2N2CCC3(CC2)CC3)ccc1Cl | 7.15 |
| O=C(Nc1cccc(S(=O)(=O)C2CCCC2)c1)c1ccc(N2CCC2)nc1N1CCC2(CCC2)CC1 | 6.85 |

Origin of the recorded values: patent US12540129B2
